Ref: the RNAGym collection of RNA variant scans (doi:10.1093/nar/gkz1192)

Item-by-item account of self-cleavage
B1: CPEB3 Ribozyme (parent)
chain: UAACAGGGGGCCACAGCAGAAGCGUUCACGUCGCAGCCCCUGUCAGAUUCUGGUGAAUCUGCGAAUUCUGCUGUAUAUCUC

variants of: B1; assay: self-cleavage, relative activity (ratio to wild type); higher = more cleavage; in vitro, sequencing
metric: self-cleavage

>  <mutant label>
A20G C40U

>  <numeric readout>
0.46

$$$$
>  <mutant label>
A18G G53U

>  <numeric readout>
0.56

$$$$
>  <mutant label>
A15C A20C

>  <numeric readout>
0.19

$$$$
>  <mutant label>
C17A A47G

>  <numeric readout>
0.28

$$$$
>  <mutant label>
U26C A35U

>  <numeric readout>
0.24

$$$$
>  <mutant label>
A21G U43C

>  <numeric readout>
0.33

$$$$
>  <mutant label>
G16A U51A

>  <numeric readout>
0.57

$$$$
>  <mutant label>
A15G A21G

>  <numeric readout>
0.49

$$$$
>  <mutant label>
G8A C44A

>  <numeric readout>
0.26

$$$$
>  <mutant label>
C4A U58C

>  <numeric readout>
0.76

$$$$
>  <mutant label>
U54A G55U

>  <numeric readout>
1.15

$$$$
